Would you mind telling me the reported IC50 of each entry?
biological target: human TDO (TDO-expressing HEK293 cells) (Homo sapiens, UniProt P48775); construct: expressed in transfected cells; test: Cell based kynurenine assay, TDO-expressing HEK293 cell clones; details: TDO-expressing HEK293 cells, 24 hours incubation; geometric mean; read-out: HEK293 TDO Kynurenine GMean IC50 (μM) (Cellular Assay)
Sequence (P48775 whole entry): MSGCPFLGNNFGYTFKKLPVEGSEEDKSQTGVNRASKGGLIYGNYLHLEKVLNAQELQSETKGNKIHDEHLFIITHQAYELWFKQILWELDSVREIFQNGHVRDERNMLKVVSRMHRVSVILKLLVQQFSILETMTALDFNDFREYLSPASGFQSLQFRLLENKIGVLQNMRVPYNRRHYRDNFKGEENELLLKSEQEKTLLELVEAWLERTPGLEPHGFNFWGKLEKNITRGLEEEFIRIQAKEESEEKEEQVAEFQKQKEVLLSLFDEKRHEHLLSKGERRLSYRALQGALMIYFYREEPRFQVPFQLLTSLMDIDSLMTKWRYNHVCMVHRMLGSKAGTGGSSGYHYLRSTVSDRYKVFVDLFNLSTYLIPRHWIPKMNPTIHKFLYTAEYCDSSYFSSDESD

Noted for CC(C)(C1CCN(C(=O)c2ccccc2Cl)CC1)C(O)c1cc(Cl)cc2cn[nH]c12 (stereo not drawn) : its IC50 reads 0.0001 to 10 µM

Measured IC50 of CC(C)(C)NC(=O)N1CCC(C(C)(C)C(O)c2cc(Cl)cc3cn[nH]c23)CC1 (stereo not drawn) : 0.0001 to 10 µM

So for OC(c1cccc2cncn12)C1CCCC1 (stereo not drawn) , the logged IC50 turned out to be > 10 µM

Record summary for OC(c1c(Cl)c(Cl)cc2cn[nH]c12)C1CCC1 (stereo not drawn) : reported IC50 = 0.0001 to 10 µM

Given item CS(=O)(=O)N1C2CCC1CN(c1c(F)c(Cl)cc3cn[nH]c13)C2 , the value recorded as its IC50 is 0.0001 to 10 µM

So for OC1(c2c(Cl)c(Cl)cc3cn[nH]c23)CC2(CCC2)C1 , the logged IC50 turned out to be > 10 µM

Value of IC50 reported for the compound OC1(c2cc(Cl)cc3[nH]ncc23)CC2(CCC2)C1 is 0.0001 to 10 µM

The reported value for CC1(C)CN(c2c(F)c(Cl)cc3cn[nH]c23)CCN1S(C)(=O)=O in terms of IC50 is 0.0001 to 10 µM

Just so you know, measured IC50 for CC(C)(C1CCN(C(=O)Nc2ccc(OC(F)(F)F)cc2)CC1)C(O)c1cc(Cl)cc2cn[nH]c12 (stereo not drawn) came out at 0.0001 to 10 µM

----------
molecular target: human IDO (IDO1-expressing HEK293 cells) (Homo sapiens, UniProt P14902); construct: expressed in transfected cells; test: Cell based kynurenine assay, IDO1-expressing HEK293 cell clones; conditions: IDO1-expressing HEK293 cells, 24 hours incubation; geometric mean; read-out: HEK293 IDO1 Kynurenine GMean IC50 (μM) (Cellular Assay)
Sequence (P14902 whole entry): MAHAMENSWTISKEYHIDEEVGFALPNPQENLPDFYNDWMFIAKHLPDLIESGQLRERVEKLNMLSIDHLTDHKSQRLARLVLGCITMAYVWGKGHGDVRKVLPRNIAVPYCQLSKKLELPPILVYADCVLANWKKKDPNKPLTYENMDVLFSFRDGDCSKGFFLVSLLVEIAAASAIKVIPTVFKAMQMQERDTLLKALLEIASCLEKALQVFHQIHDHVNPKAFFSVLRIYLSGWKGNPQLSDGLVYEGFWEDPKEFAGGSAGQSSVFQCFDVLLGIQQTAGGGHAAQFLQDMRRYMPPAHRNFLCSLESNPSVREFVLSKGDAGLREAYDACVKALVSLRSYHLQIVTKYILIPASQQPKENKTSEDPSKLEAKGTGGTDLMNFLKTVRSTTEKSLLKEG
Would you mind telling me the reported IC50 of each entry?

Lab note: measured IC50 of CC(C)(C1CCN(C(=O)Nc2ccc(F)cc2)CC1)C(O)c1cc(Cl)cc2cn[nH]c12 (stereo not drawn) was 0.0001 to 10 µM

Memo: O[C@H](c1cc(Cl)cc2cn[nH]c12)C12CCC(CC1)CC2 , reported IC50: 0.0001 to 10 µM

Query O=C(Nc1ccccc1)N1CCC(C(F)(F)C(O)c2cc(Cl)cc3cn[nH]c23)CC1 (stereo not drawn) yields IC50 of 0.0001 to 10 µM

compound OC1(c2cc(C(F)(F)F)cc3cn[nH]c23)CC2(CCC2)C1 , IC50 observed: > 10 µM

For CS(=O)(=O)N1CCC2(CC1)CC(O)(c1cc(Cl)cc3cn[nH]c13)C2 the compound record lists IC50 as 0.0001 to 10 µM

Notebook: OC(c1cc(Cl)cc2cn[nH]c12)C1(F)CCCCC1 (stereo not drawn) , IC50 read as 0.0001 to 10 µM

IC50 reading for O=S(=O)(c1ccccc1)C1(C(O)c2cc(Cl)cc3cn[nH]c23)CC1 (stereo not drawn) : > 10 µM

Looking up OC(c1cc(Cl)cc2cn[nH]c12)C1(C2CCCCC2)CC1 (stereo not drawn) , I found its IC50 recorded as 0.0001 to 10 µM

Query CCC1(C(O)c2cc(Cl)cc3cn[nH]c23)CCC1 (stereo not drawn) yields IC50 of 0.0001 to 10 µM

Entry O=S1(=O)CC2(CC(O)(c3cc(Cl)cc4cn[nH]c34)C2)C1 — recorded IC50 = > 10 µM

// IC50 lookup, compound = CC1(C(O)c2cc(Cl)cc3cn[nH]c23)CCC(F)(F)CC1 (stereo not drawn) , result: 0.0001 to 10 µM

Kindly note the recorded IC50 for CC(C)(N)CC(O)c1cc(Cl)cc2cn[nH]c12 (stereo not drawn) , which is > 10 µM

For reference, reported IC50 for OC1(c2cc(Cl)cc3[nH]ncc23)CC2(CCCCC2)C1 stands at > 10 µM

Looking up OC(c1cc(Cl)cc2cn[nH]c12)C1CC2(CCC2)C1 (stereo not drawn) , I see its IC50 listed as 0.0001 to 10 µM

Entry OC1(c2cc(Cl)cc3cn[nH]c23)CC(c2ccccc2)C1 (stereo not drawn) ; IC50 = > 10 µM

The reported numbers originate from patent US10508085B2.
